# target-or-system: rat FAAH (Rattus norvegicus, UniProt P97612)
# Construct: crude homogenate
# Sequence (P97612 1-579): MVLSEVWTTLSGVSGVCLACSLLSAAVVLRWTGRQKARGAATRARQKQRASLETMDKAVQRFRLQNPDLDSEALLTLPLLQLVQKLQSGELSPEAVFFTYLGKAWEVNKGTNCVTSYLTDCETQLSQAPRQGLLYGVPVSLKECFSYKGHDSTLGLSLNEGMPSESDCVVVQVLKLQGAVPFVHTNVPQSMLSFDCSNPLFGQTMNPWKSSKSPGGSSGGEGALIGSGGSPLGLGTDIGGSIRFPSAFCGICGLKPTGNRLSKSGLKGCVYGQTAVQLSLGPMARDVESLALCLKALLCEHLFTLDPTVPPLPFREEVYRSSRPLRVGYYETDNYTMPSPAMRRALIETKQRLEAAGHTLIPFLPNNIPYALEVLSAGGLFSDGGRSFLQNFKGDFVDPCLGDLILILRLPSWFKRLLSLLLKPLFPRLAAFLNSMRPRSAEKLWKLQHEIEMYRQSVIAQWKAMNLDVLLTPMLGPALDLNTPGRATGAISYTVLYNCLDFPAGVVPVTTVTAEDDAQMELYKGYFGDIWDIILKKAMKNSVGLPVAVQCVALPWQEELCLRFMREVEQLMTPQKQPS
# test: Assay Method 2: FAAH assay, 3H-anandamide hydrolysis in homogenate of cells transfected with rat FAAH
# condition-context: cell homogenate, 3H-AEA 80 nM, 1 h at rt, average of results

compound: O=C(Nc1cccnc1)N1CC(COc2cccc(Oc3ccc(OC(F)(F)F)cc3)c2)C1
relational-operator: =
IC50 / nM: 230
--
compound: O=C(Nc1cccnc1)N1CC(CCOc2cccc(Oc3ccccc3)c2)C1
relational-operator: =
IC50 / nM: 430
--
compound: CCCCOc1cccc(OCC2CN(C(=O)Nc3cccnc3)C2)c1
relational-operator: >
IC50 / nM: 10000
--
compound: O=C(Nc1ccc2nccn2c1)N1CC(CCOc2cccc(Oc3ccc(Cl)cc3)c2)C1
relational-operator: =
IC50 / nM: 1000
--
compound: O=C(Nc1cccnc1)N1CCC(CCOc2cccc(Oc3ccc(Cl)cc3)c2)C1 (stereo not shown)
relational-operator: =
IC50 / nM: 630
--
compound: O=C(Nc1cnccc1Cl)N1CCC(CCOc2ccc(Cl)c(Cl)c2)C1 (stereo not shown)
relational-operator: =
IC50 / nM: 700
--
compound: O=C(Nc1cccnc1)N1CC(COc2cccc(OC(F)(F)F)c2)C1
relational-operator: =
IC50 / nM: 175
--
compound: O=C(Nc1cnc2cccnn12)N1CC(CCOc2cccc(Oc3ccc(Cl)cc3)c2)C1
relational-operator: =
IC50 / nM: 4
--
compound: O=C(Nc1cnc2ccccn12)N1CC(CCOc2cccc(Oc3ccc(Cl)cc3)c2)C1
relational-operator: =
IC50 / nM: 24
--
compound: O=C(Nc1cccnc1)N1CC(COc2ccc3c(c2)CCCC3)C1
relational-operator: =
IC50 / nM: 1700
